resultType: logP

molecule	logP
CCCCOC(=O)Cc1cc(CN2CCCC2)c(O)c(CN2CCCC2)c1	0.18

(P) CC(C)COC(=O)CCCc1cc(CN2CCCC2)c(O)c(CN2CCCC2)c1
(Q) CC(C)COC(=O)CCc1cc(CN2CCCC2)c(O)c(CN2CCCC2)c1
(R) CCCOC(=O)CCc1cc(CN2CCCC2)c(O)c(CN2CCCC2)c1
Challenge: hey, can you rank those molecules up there by logP? biggest number first please Form entry: ranked labels (order as requested).
Response given: P, Q, R
(P: 0.86, Q: 0.19, R: -0.11)
